Assay: molar enthalpy of vaporization or sublimation
Conditions: 298.15 K; Crystal; drop microcalorimetry
Recorded measurements of molar enthalpy, one per entry
measured parameter: molar enthalpy (kcal/mol)

[
  {
    "smiles representation": "O=[N+]([O-])c1ccc(Cl)cc1Cl",
    "result units": "kcal/mol",
    "value measured": 21
  },
  {
    "smiles representation": "O=[N+]([O-])c1ccc(Cl)c(Cl)c1",
    "result units": "kcal/mol",
    "value measured": 20.5
  },
  {
    "smiles representation": "O=[N+]([O-])c1cc(Cl)cc(Cl)c1",
    "result units": "kcal/mol",
    "value measured": 19.9
  },
  {
    "smiles representation": "O=[N+]([O-])c1cc(Cl)ccc1Cl",
    "result units": "kcal/mol",
    "value measured": 20.9
  }
]

FYI, the data here is from the NIST ThermoML archive (doi:10.1016/j.jct.2009.03.001).
